# Test target: MBD of MeCP2 (wild type) (human/mouse (residues 76-167 identical), UniProt P51608 76-167)
# Sequence (P51608 76-167): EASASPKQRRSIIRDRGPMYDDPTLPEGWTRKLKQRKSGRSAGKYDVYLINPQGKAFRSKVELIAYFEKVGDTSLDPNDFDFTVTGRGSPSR
# Assay explanation: EMSA
pKd: −log10 of the molar value.
Quantity: pKd

Exercise: Quote pKd reported for CmCG•mCGG in AT tract (dsDNA, 5-methyl-dC at strand 1 pos 12 and strand 2 pos 12) DNA 1: TTATTTTTATCCGTTTTTAATTAT DNA 2: ATAATTAAAAACGGATAAAAATAA please.
Solution: ~7.82
